B1: library; numbered along this chain (parent)
chain: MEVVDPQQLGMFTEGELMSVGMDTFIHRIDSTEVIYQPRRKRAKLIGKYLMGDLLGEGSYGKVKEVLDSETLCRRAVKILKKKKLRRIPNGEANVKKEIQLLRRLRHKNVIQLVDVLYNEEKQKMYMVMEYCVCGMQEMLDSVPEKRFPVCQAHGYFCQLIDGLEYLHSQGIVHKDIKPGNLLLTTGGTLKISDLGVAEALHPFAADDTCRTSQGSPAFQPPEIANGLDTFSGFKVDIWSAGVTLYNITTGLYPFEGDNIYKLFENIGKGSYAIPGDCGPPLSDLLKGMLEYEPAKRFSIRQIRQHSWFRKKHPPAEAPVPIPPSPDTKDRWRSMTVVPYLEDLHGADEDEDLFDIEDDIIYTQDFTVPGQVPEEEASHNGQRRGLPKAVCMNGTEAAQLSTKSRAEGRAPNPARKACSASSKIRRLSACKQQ

Variants of: B1
Experiment: STK11 functional score (HeLa growth suppression), rescaled enrichment; synonymous median = 1, nonsense median = 0 (normalised score)
Conditions: with HeLa; variant type: missense
Recorded STK11 functional score values for a group of variants are listed next.
A bare number is all that is needed in reply.

Some variants with known STK11 functional score results, for comparison:
> print(dat)
   variant.identifier  numeric.result
1                K81D            1.28
2               L285I           0.951
3               D162A           0.819
4               T402F            1.18
5               P280V            1.41

STK11 functional score in this record for `E293W` : 1.07

STK11 functional score in this record for `P314V` : 1.16
